test system: STAR-2-STAR (C. elegans); test: EMSA; conditions: 10 mM Tris pH 8.0, 25 mM NaCl, 0.1 mM EDTA, 0.1 mg/mL tRNA, 5 ug/mL heparin, 0.01% IGEPAL CA630, room temperature, 3 h; EMSA gel 6% native, 0.5x TBE, 4 C
quantity.measured: Kd (µM)
# number only, unit µM dropped from output

For the sequence UAUUUAAUUUCUUAUCUACUCAUAUCUA [WT TGE 28-mer] , what Kd is on record? 0.036

Item under review: UAUUUAAUUUCUUAUCUACUAAUAUCUA [C21A TGE 28-mer] . Reported Kd? 0.0012
